# systemTested: TLR7 (Homo sapiens, UniProt Q9NYK1)
# Construct: human HEK-Blue cells co-expressing a TLR7 or TLR8 gene
# Sequence (Q9NYK1 27-1049): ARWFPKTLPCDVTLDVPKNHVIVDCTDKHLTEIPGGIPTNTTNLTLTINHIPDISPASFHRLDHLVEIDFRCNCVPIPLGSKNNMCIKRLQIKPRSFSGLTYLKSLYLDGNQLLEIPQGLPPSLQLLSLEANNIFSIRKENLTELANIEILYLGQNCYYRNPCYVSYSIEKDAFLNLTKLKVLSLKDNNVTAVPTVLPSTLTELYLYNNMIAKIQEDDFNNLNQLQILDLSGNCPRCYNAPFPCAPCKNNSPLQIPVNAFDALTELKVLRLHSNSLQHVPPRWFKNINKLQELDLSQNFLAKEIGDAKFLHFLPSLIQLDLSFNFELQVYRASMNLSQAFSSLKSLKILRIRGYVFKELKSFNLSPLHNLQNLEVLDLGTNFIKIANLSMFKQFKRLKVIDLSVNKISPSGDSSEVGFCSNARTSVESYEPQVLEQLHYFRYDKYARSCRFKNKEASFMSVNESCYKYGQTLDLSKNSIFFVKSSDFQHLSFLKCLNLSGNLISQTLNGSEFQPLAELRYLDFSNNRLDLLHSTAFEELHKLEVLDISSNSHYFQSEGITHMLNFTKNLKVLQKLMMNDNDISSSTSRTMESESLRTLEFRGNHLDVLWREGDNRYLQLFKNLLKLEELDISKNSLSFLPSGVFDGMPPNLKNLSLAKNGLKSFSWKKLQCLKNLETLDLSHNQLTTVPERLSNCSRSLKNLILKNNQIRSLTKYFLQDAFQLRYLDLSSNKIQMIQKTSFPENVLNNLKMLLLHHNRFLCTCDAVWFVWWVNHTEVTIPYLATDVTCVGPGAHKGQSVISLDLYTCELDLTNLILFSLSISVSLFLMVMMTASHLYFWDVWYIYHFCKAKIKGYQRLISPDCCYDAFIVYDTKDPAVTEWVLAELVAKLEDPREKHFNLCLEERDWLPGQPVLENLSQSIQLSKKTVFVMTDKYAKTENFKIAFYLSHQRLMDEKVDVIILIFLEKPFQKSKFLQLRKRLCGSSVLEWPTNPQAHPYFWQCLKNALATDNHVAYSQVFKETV
# experimentDescription: In vitro human TLR7 binding reporter assay (HEK-Blue, NF-kB/AP1-inducible SEAP)
# Type: cell-based
# measurementConditions: activity range class, read-out: TLR7 Agonist EC50
pEC50: −log10 of the molar value.
pEC50 reference
reportedProperty: pEC50

1. Nc1nc2cc(-c3cc[nH]n3)ccc2c2nn(C3COC3)cc12 | < 4.00
2. CCn1cc2c(N)nc3cc(-c4cc[nH]n4)ccc3c2n1 | < 4.00
3. COC(C)(C)Cn1cc2c(N)nc3cc(-c4cc[nH]n4)ccc3c2n1 | < 4.00
4. COCC(C)n1cc2c(N)nc3cc(-c4cc[nH]n4)ccc3c2n1 (single isomer, unassigned) [Example 337] | < 4.00
5. Nc1nc2cc(-n3cccn3)ccc2c2c1cnn2CCCO | < 4.00
6. Nc1nc2cc(-c3cc[nH]n3)ccc2c2nn(CCOCCO)cc12 | < 4.00
7. CC(=O)NC(C)Cn1cc2c(N)nc3cc(-c4ccn[nH]4)ccc3c2n1 (single isomer, unassigned) [Example 300] | < 4.00
8. Nc1nc2cc(-c3cc[nH]n3)ccc2c2cn(CCNc3ccccn3)nc12 | < 4.00
9. CC(Cn1cc2c(N)nc3cc(-c4ccn[nH]4)ccc3c2n1)NC(=O)c1cc(F)ccn1 (stereo not drawn) | < 4.00
10. Cc1ccc(C(=O)NCCn2cc3c(n2)c(N)nc2cc(-c4cc[nH]n4)ccc23)cc1 | < 4.00
11. Nc1nc2cc(-c3cc[nH]n3)ccc2c2nn(CC3CC3(F)F)cc12 (stereo not drawn) | < 4.00
12. NCCn1cc2c(N)nc3cc(-c4cc[nH]n4)ccc3c2n1 | < 4.00
13. COC1CCCN(CCn2cc3c(N)nc4cc(-c5ccn[nH]5)ccc4c3n2)C1 (stereo not drawn) | < 4.00
14. COc1ccc(CNCCn2cc3c(n2)c(N)nc2cc(-c4cc[nH]n4)ccc23)cc1 | 4.00 to 4.70
15. Nc1nc2cc(-c3cc[nH]n3)ccc2c2cn(CCCN3CCOCC3)nc12 | < 4.00
16. Nc1nc2cc(-c3cc[nH]n3)ccc2c2cn(Cc3nc(-c4ccccc4)no3)nc12 | < 4.00
17. Nc1nc2cc(-c3cc[nH]n3)ccc2c2cn(CCCc3cccnc3)nc12 | < 4.00
18. CCCn1cc2c(n1)c(N)nc1cc(-c3ccn[nH]3)ccc12 | < 4.00

Data provenance is patent US12037344B2.
